meta.source: patent US11420947B2

Test readout: IC50 (nM)
Write the answer as a number in nM, unit excluded.

**Q:** State IC50 on HDAC4 (Homo sapiens, UniProt P56524). Entry: CC[C@@H](C(=O)Nc1ncc(C(=O)NO)s1)c1ccc(OC)cc1
Sequence (P56524 whole entry, species assumed): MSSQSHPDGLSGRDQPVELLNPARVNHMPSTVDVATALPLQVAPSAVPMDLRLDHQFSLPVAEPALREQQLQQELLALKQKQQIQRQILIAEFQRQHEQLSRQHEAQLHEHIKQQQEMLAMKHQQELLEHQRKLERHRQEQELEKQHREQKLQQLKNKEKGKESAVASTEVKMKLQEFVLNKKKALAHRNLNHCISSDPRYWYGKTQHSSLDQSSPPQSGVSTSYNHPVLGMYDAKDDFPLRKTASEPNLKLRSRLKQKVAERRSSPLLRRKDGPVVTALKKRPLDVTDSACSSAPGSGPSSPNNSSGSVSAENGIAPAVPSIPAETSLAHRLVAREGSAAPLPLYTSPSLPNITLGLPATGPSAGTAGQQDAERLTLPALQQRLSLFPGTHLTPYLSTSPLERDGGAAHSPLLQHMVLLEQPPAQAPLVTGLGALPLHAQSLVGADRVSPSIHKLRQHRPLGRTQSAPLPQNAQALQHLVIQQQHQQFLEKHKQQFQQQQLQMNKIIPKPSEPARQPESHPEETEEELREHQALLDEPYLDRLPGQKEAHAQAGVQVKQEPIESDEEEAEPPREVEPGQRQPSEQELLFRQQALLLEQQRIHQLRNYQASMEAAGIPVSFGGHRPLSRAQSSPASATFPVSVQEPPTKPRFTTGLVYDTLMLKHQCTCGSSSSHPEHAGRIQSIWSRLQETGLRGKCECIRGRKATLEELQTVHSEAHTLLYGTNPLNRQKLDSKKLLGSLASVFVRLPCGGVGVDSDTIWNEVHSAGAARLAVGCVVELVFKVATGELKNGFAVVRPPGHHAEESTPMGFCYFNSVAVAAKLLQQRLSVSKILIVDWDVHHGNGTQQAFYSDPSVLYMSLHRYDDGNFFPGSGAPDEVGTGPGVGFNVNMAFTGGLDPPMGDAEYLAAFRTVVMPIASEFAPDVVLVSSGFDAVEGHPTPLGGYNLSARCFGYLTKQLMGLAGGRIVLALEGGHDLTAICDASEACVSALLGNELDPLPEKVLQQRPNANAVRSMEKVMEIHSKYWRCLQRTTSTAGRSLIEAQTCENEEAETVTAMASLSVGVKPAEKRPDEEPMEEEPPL
**A:** 160

* * *

- Tested on: RXF-393
- Experimental protocol: CellTiter-Glo cell viability assay
- Type: cell-based
- Condition label: Homo sapiens; RXF-393, RENAL, RCC, 72 hours
Please go through the items and note down their pIC50.
Note on units: pIC50 is unitless, being -log10 of a concentration expressed in mol/L.

**Q:** For the molecule CC[C@@H](C(=O)Nc1ncc(C(=O)NO)s1)c1ccc(OC)cc1 , give its reported pIC50.
**A:** 6.05

**Q:** Supply reported pIC50 belonging to this molecule: CC[C@H](C(=O)Nc1ncc(C(=O)NO)s1)c1ccc(OC)cc1
**A:** 6.95

**Q:** Determine its reported pIC50: CCC(C(=O)Nc1ncc(C(=O)NO)s1)c1ccc(OC)cc1 (racemic)
**A:** 6.40

* * *

- Experimental protocol: Pharmacokinetics studies in mice
- Type: in vivo
- Condition label: mouse, in vivo, SC-5 mg/kg, 5% Ethanol 5% Cremophor 90% Saline
Test readout: AUC(0-inf) (ng·h/mL)
Give the value in ng·h/mL but do not write ng·h/mL after it.

**Q:** Entry CC[C@H](C(=O)Nc1ncc(C(=O)NO)s1)c1ccc(OC)cc1 needs its AUC(0-inf) filled in; supply it.
**A:** 347

* * *

For each entry below, report its pIC50 value.
- Tested on: MM1.S
- Experimental protocol: CellTiter-Glo cell viability assay
- Format: cell-based
- Condition label: Homo sapiens; MM1.S, HEMATOPIETIC, MM, 72 hours
pIC50 here is simply -log10 of the concentration when that concentration is written in mol/L.

**Q:** Report pIC50, nothing else, for this compound: CC[C@@H](C(=O)Nc1ncc(C(=O)NO)s1)c1ccc(OC)cc1
**A:** 7.15

**Q:** Given CCC(C(=O)Nc1ncc(C(=O)NO)s1)c1ccc(OC)cc1 (racemic) , respond with its pIC50.
**A:** 7.48

**Q:** Quote pIC50 reported for CC[C@H](C(=O)Nc1ncc(C(=O)NO)s1)c1ccc(OC)cc1 please.
**A:** 7.92

* * *

This document collects IC50 values reported for HDAC6 (Homo sapiens, UniProt Q9UBN7).
# answer = value followed by unit

**Q:** Write IC50 of CC[C@@H](C(=O)Nc1ncc(C(=O)NO)s1)c1ccc(OC)cc1 [#1b] ; system used: HDAC6 (Homo sapiens, UniProt Q9UBN7)
Sequence (Q9UBN7 whole entry, species assumed): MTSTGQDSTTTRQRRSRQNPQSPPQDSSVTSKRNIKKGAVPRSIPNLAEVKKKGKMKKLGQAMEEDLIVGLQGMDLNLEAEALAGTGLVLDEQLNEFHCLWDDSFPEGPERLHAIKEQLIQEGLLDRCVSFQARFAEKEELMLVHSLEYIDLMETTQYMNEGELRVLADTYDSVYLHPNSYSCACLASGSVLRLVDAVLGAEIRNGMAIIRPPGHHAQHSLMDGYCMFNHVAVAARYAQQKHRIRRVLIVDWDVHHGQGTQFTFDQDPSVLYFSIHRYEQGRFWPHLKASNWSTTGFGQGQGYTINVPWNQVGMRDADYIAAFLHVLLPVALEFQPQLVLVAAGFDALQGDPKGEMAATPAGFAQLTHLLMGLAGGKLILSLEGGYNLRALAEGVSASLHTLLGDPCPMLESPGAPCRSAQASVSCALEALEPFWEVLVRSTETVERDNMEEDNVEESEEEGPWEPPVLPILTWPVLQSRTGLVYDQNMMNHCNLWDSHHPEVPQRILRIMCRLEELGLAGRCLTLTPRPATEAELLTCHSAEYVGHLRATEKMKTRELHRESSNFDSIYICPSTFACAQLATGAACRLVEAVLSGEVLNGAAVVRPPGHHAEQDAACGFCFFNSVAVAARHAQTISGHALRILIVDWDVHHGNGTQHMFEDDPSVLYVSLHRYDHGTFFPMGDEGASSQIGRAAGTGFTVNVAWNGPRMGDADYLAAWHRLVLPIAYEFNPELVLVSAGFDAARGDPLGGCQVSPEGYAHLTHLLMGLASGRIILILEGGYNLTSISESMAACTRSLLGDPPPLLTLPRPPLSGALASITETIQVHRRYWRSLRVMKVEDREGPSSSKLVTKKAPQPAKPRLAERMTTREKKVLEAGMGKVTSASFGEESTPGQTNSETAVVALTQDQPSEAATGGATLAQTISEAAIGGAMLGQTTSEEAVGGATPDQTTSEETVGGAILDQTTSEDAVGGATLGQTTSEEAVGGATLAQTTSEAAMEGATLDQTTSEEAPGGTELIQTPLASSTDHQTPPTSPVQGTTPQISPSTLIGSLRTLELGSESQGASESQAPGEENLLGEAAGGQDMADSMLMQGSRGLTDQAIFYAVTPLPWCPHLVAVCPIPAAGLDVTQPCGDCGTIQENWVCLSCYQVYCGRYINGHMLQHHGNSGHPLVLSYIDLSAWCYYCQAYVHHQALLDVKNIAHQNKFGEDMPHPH
**A:** 1100 pM

**Q:** Provide IC50, recorded with HDAC6 (Homo sapiens, UniProt Q9UBN7), of CC[C@H](C(=O)Nc1ncc(C(=O)NO)s1)c1ccc(OC)cc1 [#1a]
**A:** 710 pM

* * *

- Tested on: UniProt:Q13547
- Sequence (Q13547 whole entry): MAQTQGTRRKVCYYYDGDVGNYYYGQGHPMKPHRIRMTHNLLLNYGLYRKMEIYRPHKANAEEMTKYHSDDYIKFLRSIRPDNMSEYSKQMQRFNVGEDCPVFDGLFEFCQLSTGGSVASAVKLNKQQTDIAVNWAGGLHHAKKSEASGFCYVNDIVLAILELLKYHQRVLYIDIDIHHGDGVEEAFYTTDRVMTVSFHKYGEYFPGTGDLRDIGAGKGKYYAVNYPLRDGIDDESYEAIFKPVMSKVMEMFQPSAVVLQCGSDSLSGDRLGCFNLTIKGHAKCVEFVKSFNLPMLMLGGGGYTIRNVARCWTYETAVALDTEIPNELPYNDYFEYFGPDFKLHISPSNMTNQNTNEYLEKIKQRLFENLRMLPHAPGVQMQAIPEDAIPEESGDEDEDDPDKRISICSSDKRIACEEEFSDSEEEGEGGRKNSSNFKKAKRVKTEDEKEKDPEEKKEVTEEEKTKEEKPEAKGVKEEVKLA
Test readout: IC50 (nM)
Kindly answer with a numeric value in nM, unit omitted.

**Q:** Give the observed IC50 of CC[C@@H](C(=O)Nc1ncc(C(=O)NO)s1)c1ccc(OC)cc1 [#1b] for UniProt:Q13547.
**A:** 7.8

* * *

So I've got a bunch of compounds here, and I need their pIC50 values.
- System: HepG2
- Experimental protocol: CellTiter-Glo cell viability assay
- Assay type: cell-based
- Condition label: Homo sapiens; HepG2, LIVER, HCC, 72 hours
Quick note: pIC50 means taking -log10 of the concentration in moles per liter.

**Q:** Identify measured pIC50 corresponding to CC[C@@H](C(=O)Nc1ncc(C(=O)NO)s1)c1ccc(OC)cc1
**A:** 6.20

**Q:** Please supply the value of reported pIC50 for the item CC[C@H](C(=O)Nc1ncc(C(=O)NO)s1)c1ccc(OC)cc1
**A:** 7.12

**Q:** Provide only the value of recorded pIC50 for CCC(C(=O)Nc1ncc(C(=O)NO)s1)c1ccc(OC)cc1 (racemic)
**A:** 6.67
